# System: MOLT-4F
# EXPERIMENT_DESCRIPTION: Inhibitory activity against proliferation of human(Molt/4F) tumor cell.
# Format: functional, cell-based
PARAMETER_MEASURED: IC50
Could you kindly put the unit after your number?

Query: Requested read-out: IC50. Entry: C/C(=C\COC(=O)NCCCl)C1=CC(=O)C(C)(C)O1
Result: 10.7 µg/mL

Query: Item under review: COc1cc2ccc(=O)oc2cc1OC/C=C(\C)C1=CC(=O)C(C)(C)O1 . Reported IC50?
Result: 2.9 µg/mL

Query: Consider the compound shown here: CCCCCCCCNC(=O)OC/C=C(\C)C1=CC(=O)C(C)(C)O1 What is its recorded IC50?
Result: 1.7 µg/mL

Query: Name the reported IC50 value associated with the compound C/C(=C\C=C\c1ccc2ccc(=O)oc2c1)C1=CC(=O)C(C)(C)O1
Result: 13 µg/mL
